target: T1, Human VSIG4-L-Fc (human); experiment: BLI binning on hVSIG4-L-Fc, competitor 12A12 first;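 further: normalized to binding of second antibody without first competitor antibody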
T1 construct: also called hVSIG4-L-Fc; hVSIG4-L
T1 sequence (chain, as listed by the source limits assumed): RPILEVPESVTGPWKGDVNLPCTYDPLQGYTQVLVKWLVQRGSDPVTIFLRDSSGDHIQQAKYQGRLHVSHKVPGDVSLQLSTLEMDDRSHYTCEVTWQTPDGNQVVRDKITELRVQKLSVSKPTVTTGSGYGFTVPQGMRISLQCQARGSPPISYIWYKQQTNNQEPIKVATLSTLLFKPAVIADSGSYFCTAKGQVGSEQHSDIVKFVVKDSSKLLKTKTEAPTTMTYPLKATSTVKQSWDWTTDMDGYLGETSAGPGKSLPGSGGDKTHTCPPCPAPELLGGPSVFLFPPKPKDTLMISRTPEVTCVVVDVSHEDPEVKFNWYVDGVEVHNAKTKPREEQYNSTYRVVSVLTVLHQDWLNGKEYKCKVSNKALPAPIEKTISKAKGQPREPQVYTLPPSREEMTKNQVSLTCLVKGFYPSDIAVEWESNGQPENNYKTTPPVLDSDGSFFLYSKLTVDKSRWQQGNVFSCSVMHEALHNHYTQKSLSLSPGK
property label: normalized maximum binding nm shift (normalized)
Numbers only, in normalized.

Sample 12A12 mouse/human chimeric IgG4 (S228P) kappa (antibody, V domains shown) VH: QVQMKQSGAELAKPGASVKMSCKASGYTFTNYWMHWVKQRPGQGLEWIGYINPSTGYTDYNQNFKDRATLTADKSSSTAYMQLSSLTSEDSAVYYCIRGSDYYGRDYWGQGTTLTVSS VL: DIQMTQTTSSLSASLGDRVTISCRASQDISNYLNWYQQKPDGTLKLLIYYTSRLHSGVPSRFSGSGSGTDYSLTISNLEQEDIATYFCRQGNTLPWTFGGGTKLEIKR — what was its normalized maximum binding nm shift?
0.13
